procedure-text: Physical stability at elevated temperatures (impurities by HPLC)
Type: physicochemical
test-context: stored 7 days at 80° C.; in % (unit assumed)
readout-label: 4-Epi-Tigecycline 7 days at 80° C.
Kindly provide the number alone.

Return the recorded 4-Epi-Tigecycline 7 days at 80° C. value; entry: CN(C)c1cc(NC(=O)CNC(C)(C)C)c(O)c2c1C[C@H]1C[C@H]3[C@H](N(C)C)C(O)=C(C(N)=O)C(=O)[C@@]3(O)C(O)=C1C2=O [WO 2008/066935 IX, Tigecycline]
0.70

Determine its reported 4-Epi-Tigecycline 7 days at 80° C.: CN(C)c1cc(NC(=O)CNC(C)(C)C)c(O)c2c1C[C@H]1C[C@H]3[C@H](N(C)C)C(O)=C(C(N)=O)C(=O)[C@@]3(O)C(O)=C1C2=O [WO 2006/128150 V, Tigecycline]
0.18

Specify reported 4-Epi-Tigecycline 7 days at 80° C. for the molecule shown: CN(C)c1cc(NC(=O)CNC(C)(C)C)c(O)c2c1C[C@H]1C[C@H]3[C@H](N(C)C)C(O)=C(C(N)=O)C(=O)[C@@]3(O)C(O)=C1C2=O [WO 2006/128150 II, Tigecycline]
10.83
